For each record, write down the corresponding Inhibition of ligand binding, Adren. alpha2B.
system: human recombinant adrenergic α2B receptor (Homo sapiens, UniProt P18089)
Construct: expressed in transfected cells; host or cells: CHO-K1 cells
Sequence (P18089 1-450): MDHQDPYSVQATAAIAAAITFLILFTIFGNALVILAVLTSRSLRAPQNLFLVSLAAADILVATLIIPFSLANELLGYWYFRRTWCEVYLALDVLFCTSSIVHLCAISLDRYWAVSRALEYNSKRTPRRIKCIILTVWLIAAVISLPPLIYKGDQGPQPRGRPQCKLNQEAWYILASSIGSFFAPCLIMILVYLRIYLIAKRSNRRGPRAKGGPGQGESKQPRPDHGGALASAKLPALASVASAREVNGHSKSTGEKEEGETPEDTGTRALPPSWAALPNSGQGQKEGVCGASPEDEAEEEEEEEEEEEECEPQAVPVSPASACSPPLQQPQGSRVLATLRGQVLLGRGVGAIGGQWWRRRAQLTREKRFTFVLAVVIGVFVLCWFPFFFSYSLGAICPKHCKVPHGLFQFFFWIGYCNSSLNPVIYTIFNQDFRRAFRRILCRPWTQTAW
measurement.notes: Adrenergic α2B radioligand binding ([3H]Rauwolscine)
Set-up: concentration or dose not given beside the values
settings: percent inhibition of specific binding
Numbers only, in %.

compound	system	experimental.result
CN1CCN(CCn2c3c(c4cc(Cl)ccc42)CN(C)CC3)CC1 [Compound 417]	human recombinant adrenergic α2B receptor (Homo sapiens, UniProt P18089)	−1
Cc1ncc(CCn2c3c(c4cc(C(C)C)ccc42)CN(C)CC3)cn1 [Compound 370]	human recombinant adrenergic α2B receptor (Homo sapiens, UniProt P18089)	87
CN1CCc2c(c3cc(Cl)ccc3n2CC(=O)N2CCNCC2)C1 [Compound 244]	human recombinant adrenergic α2B receptor (Homo sapiens, UniProt P18089)	13
Cc1ccc2c(c1)c1c(n2CCC(=O)N2CCC(N)CC2)CCN(C)C1 [Compound 231]	human recombinant adrenergic α2B receptor (Homo sapiens, UniProt P18089)	11
CN1CCc2c(c3ccccc3n2CCc2ccncc2)C1 [Compound 10]	human recombinant adrenergic α2B receptor (Homo sapiens, UniProt P18089)	92

// for each compound in input: emit Inhibition of ligand binding, Adren. alpha2B
1. Cc1ccc2c(c1)c1c(n2CC(=O)N2CCCCC2)CCN(C)C1 [Compound 395]
2. Cc1ccc2c(c1)c1c(n2CC(C)c2ccc(F)cc2)CCN(C)C1 (stereo not shown) [Compound 456]
3. Cc1ccc2c(c1)c1c(n2CCc2ccc(C)nc2)CCN(C)C1=O [Compound 216]
4. Cc1ccc2c(c1)c1c(n2CCc2ccc(C)[n+]([O-])c2)CCN(C)C1 [Compound 394]
5. Cc1ccc2c(c1)c1c(n2CCc2cncnc2)CCN(C)C1 [Compound 387]
6. Cc1ccc2c(c1)c1c(n2CCc2ccc(C)nc2)CCN(C2CC2)C1 [Compound 51]
7. OC1CCC(N2CCc3c(c4cc(Cl)ccc4n3CCc3ccc(C(F)(F)F)nc3)C2)C1 (stereo not shown) [Compound 351]
8. Cc1ccc2c(c1)c1c(n2CCc2ccc(C(C)C)nc2)CCN(C)C1 [Compound 360]

Response:
[2, 110, 3, 19, 95, 10, 43, 115]

// for each compound in input: emit Inhibition of ligand binding, Adren. alpha2B
1. CN1CCc2c(c3c(Cl)cccc3n2CCc2ccccc2)C1 [Compound 81]
2. CN1CCc2c(c3cc(Cl)ccc3n2CCc2cncnc2)C1 [Compound 424]

Response:
1. 90
2. 94

// for each compound in input: emit Inhibition of ligand binding, Adren. alpha2B
1. CN1CCc2c(c3cc(Cl)ccc3n2CCC2CCCCC2)C1 [Compound 164]
2. Cc1ccc(Cn2c3c(c4ccccc42)CN(C)CC3)cn1 [Compound 17]
3. CCN1CCc2c(c3cc(C)ccc3n2Cc2ccccc2)C1 [Compound 140]
4. Cc1ccc2c(c1)c1c(n2CC(=O)N2CCc3ccccc3C2)CCN(C)C1 [Compound 398]
5. Cc1ccc2c(c1)c1c(n2CCc2ccccc2)CCNC1 [Compound 228]
6. Cc1ccc2c(c1)c1c(n2CCc2cncc(Cl)c2)CCN(C)C1 [Compound 443]
7. CN1CCc2c(c3ccccc3n2CCc2ccccn2)C1 [Compound 329]

Response:
[93, 9, "−4", 50, 101, 117, 68]

// for each compound in input: emit Inhibition of ligand binding, Adren. alpha2B
1. Cc1ccc2c(n1)c1c(n2CCc2ccc(C(F)(F)F)nc2)CCN(C)C1 [Compound 353]
2. Cc1cccc2c3c(n(CCc4ccc(C(F)(F)F)nc4)c12)CCN(C)C3 [Compound 380]
3. COc1ccc(CCn2c3c(c4cc(Cl)ccc42)CN(C)CC3)cc1F [Compound 337]
4. Cc1ccc2c(c1)c1c(n2CCc2cnc(C)cn2)CCN(C)C1 [Compound 322]
5. Cc1ccc2c(c1)c1c(n2CCc2ccc(C)nc2)CCNC1 [Compound 230]

Response:
[11, 103, 117, 115, 104]

// for each compound in input: emit Inhibition of ligand binding, Adren. alpha2B
1. Cc1ccc2c(c1)c1c(n2CCc2ccncc2)CCN(C)C1 [Compound 22]
2. Cc1ccc2c(c1)c1c(n2CCc2cnc(C)nc2)CCN(C)C1 [Compound 323]
3. CC1CCN(C(=O)Cn2c3c(c4cc(Cl)ccc42)CN(C)CC3)CC1 [Compound 237]
4. CN1CCc2c(c3cc(Cl)ccc3n2CCc2cncc(Cl)c2)C1 [Compound 444]
5. Cc1ccc2c(c1)c1c(n2CCc2cncc(C(F)(F)F)c2)CCN(C)C1 [Compound 425]

Response:
1: 105; 2: 62; 3: 12; 4: 113; 5: 99

// for each compound in input: emit Inhibition of ligand binding, Adren. alpha2B
1. Cc1ccc2c(c1)c1c(n2CC(=O)N2CCOCC2)CCN(C)C1 [Compound 330]
2. Cc1ccc(CCn2c3c(c4cc(Cl)c(F)cc42)CN(C)CC3)cn1 [Compound 404]
3. CCN1CCc2c(c3cc(C)ccc3n2CCc2ccncc2)C1 [Compound 27]
4. Cc1ccc2c(c1)c1c(n2CCN2CCCC2)CCN(C)C1 [Compound 221]
5. Cc1cnc(CCn2c3c(c4cc(C(C)C)ccc42)CN(C)CC3)cn1 [Compound 369]
6. CCN1CCc2c(c3cc(C)ccc3n2CCc2ccccn2)C1 [Compound 23]
7. Cc1ccc2c(c1)c1c(n2CCN2CCCCC2)CCN(C)C1 [Compound 224]
8. CN1CCc2c(c3cc(Cl)ccc3n2CC(=O)N2CCOCC2)C1 [Compound 238]

Response:
6
95
100
26
105
97
46
14
